Biological target: T1, Fusion protein of extracellular domain of human TIGIT and His-tag (human TIGIT ECD-his) (human)
T1 chain: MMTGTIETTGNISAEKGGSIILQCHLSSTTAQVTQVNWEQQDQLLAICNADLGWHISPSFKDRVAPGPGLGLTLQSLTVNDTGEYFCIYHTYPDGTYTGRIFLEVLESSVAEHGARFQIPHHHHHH
Test: BIAcore
OBSERVABLE: koff (s⁻¹)
Numbers only here, please. The scale is s⁻¹.

* TIGIT-070-H3L3 (antibody, V domains shown, Humanized anti-TIGIT antibody) VH: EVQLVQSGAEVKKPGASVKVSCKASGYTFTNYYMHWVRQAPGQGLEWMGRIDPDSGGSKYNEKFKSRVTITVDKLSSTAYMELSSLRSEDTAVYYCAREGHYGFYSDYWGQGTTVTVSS VL: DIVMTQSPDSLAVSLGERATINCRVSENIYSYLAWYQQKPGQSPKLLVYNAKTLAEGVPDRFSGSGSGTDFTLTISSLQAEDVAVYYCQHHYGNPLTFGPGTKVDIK | 0.000151
* TIGIT-070-H1L1 (antibody, V domains shown, Humanized anti-TIGIT antibody) VH: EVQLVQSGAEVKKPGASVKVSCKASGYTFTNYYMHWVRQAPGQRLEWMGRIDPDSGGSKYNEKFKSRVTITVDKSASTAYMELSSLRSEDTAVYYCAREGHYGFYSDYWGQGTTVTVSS VL: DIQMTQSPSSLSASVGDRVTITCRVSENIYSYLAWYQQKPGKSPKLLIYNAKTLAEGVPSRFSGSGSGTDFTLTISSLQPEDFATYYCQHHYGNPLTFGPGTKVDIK | 0.000116

Switching to the query record.
Challenge: Looking for the measured koff of TIGIT-006-H5L2 (antibody, V domains shown, Humanized anti-TIGIT antibody) VH: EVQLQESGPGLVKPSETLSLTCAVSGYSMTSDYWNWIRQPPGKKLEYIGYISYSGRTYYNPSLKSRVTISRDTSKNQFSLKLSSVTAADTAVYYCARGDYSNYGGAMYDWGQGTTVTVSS VL: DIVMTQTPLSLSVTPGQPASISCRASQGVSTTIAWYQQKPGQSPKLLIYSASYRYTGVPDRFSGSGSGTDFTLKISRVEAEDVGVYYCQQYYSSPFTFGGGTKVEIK , can you help?
Response given: 0.000184
